These data points were gathered from patent US20240317847A1.

Molecular target: T1, human IL-11 (human, UniProt P20809 22-199)
T1 construct: Invigate, e.g. lot #C121021-19; biotinylated where coated in the ELISA; also called hIL-11; hIL11
T1 sequence: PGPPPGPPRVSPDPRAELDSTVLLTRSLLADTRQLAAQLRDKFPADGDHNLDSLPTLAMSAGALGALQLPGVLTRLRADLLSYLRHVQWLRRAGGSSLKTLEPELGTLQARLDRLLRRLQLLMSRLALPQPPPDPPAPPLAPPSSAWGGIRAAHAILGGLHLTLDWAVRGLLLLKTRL
Assay: SPR, antibody captured, IL-11 as analyte
pKd: −log10 of the molar value.
As shown below, each of these binders has a reported pKd value.
Parameter Measured: pKd

- Binder: "TPP-29396 (antibody, human IgG1, V domains shown) VH: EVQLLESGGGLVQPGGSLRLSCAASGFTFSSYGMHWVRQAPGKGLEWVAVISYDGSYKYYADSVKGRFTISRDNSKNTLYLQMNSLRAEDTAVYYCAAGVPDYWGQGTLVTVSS VL: QSVLTQPPSASGTPGQRVTISCSGSSSNIWSDYDVHWYQQLPGTAPKLLIYSNEERPSGVPDRFSGSKSGTSASLAISGLRSEDEADYYCAAWDFSLYGPVFGGGTKLTVL"
  Numeric Value: 9.11
- Binder: "TPP-29391 (antibody, human IgG1, V domains shown) VH: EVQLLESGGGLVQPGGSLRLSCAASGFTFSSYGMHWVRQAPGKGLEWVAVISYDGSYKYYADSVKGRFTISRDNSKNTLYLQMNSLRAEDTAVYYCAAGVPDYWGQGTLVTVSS VL: QSVLTQPPSASGTPGQRVTISCSGSSSNIGSDYDVHWYQQLPGTAPKLLIYSNNERPSGVPDRFSGSKSGTSASLAISGLRSEDEADYYCAAWDSSLYGPVFGGGTKLTVL"
  Numeric Value: 9.44
- Binder: "TPP-29399 (antibody, human IgG1, V domains shown) VH: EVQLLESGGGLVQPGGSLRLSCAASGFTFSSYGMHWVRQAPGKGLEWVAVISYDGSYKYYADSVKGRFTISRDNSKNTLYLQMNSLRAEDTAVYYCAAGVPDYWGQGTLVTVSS VL: QSVLTQPPSASGTPGQRVTISCSGSSSNIGSDYDVHWYQQLPGTAPKLLIYSNNERPSGVPDRFSGSKSGTSASLAISGLRSEDEADYYCAAWDSSLSGPVFGGGTKLTVL"
  Numeric Value: 9.25
- Binder: "TPP-29400 (antibody, human IgG1, V domains shown) VH: EVQLLESGGGLVQPGGSLRLSCAASGFTFSSYGGHWVRQAPGKGLEWVALISYDGSYKYYADSVKGRFTISRDNSKNTLYLQMNSLRAEDTAVYYCAAGVPDYWGQGTLVTVSS VL: QSVLTQPPSASGTPGQRVTISCSGSSSNIGSDYDVHWYQQLPGTAPKLLIYSNNERPSGVPDRFSGSKSGTSASLAISGLRSEDEADYYCAAWDFSLSGPVFGGGTKLTVL"
  Numeric Value: 9.30
- Binder: "TPP-29382 (antibody, human IgG1, V domains shown) VH: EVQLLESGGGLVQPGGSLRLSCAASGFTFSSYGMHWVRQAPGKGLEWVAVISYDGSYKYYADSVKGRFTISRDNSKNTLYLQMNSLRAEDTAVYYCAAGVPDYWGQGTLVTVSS VL: QSVLTQPPSASGTPGQRVTISCSGSSSNIGSDLDVHWYQQLPGTAPKLLIYSNNERPSGVPDRFSGSKSGTSASLAISGLRSEDEADYYCAAWDFSLYGPVFGGGTKLTVL"
  Numeric Value: 9.36
